// reported protein stability index per item
B1: PLAGL1 (parent)
chain: TKEKKHQCDHCERCFYTRKDVRRH

# Variants of: B1
# protocol.notes: protein stability index of a GFP-peptide fusion (GPS, HEK-293T) (PSI 1-6); higher = more stable;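 also: lentivirally expressed fusions sorted by FACS into six bins by GFP to DsRed ratio, PSI derived from sequencing read proportions per bin multiplied by bin number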
# condition.info: c terminus: a fixed tail appended
Please give the numeric answer without any surrounding text.

Examples from the recorded data:
TKEKKHQCDHCERCFYTRKDVLRH [R22L] : 3.84
TKEKKHQCDHCERCFYTRKDVRRP [H24P] : 3.24

Exam item: For the variant shown here, TKEKKHQCDHCERCFYTRKDVVRH [R22V] , give the reported protein stability index.
Marked response: 3.76

Exam item: Now the variant TKEKKHQCDHCERCFYTRKDARRH [V21A]
Marked response: 3.68

Exam item: And the next one, TKQKKHQCDHCERCFYTRKDVRRH [E3Q] ?
Marked response: 3.35
